Test system: NCI-H522 lung
Assay: NCI tumour cell line growth inhibition, 48 h
Answer each item with its documented log10 of TGI.
Scale: log10; quantity: TGI; unit before log: µM

molecule=O[C@@H]1CCCCN1Cc1cc2cc3c(cc2c2cc(OCc4ccccc4)ccc12)OCO3 target_under_test="NCI-H522 lung" metric="log10 of TGI" value_reported=0.46

Batch: log10 of TGI for all items listed.
1. CCn1nc(C#Cc2c(C)ccc3c(Nc4ccc(Cl)cc4)nccc23)c2c(N)ncnc21
2. C/C(=C/C(=O)N(C)c1ccccc1Cl)O[Si](C(C)C)(C(C)C)C(C)C
3. O=c1c2cc(F)ccc2sc2c(NCCCNCCO)nc3ccc(F)cc3c12
4. CC1(C)CCC(c2ccc(Cl)cc2)=C(CN2CCN(c3ccc(C(=O)NS(=O)(=O)c4ccc(N[C@H](CCN5CCOCC5)CSc5ccccc5)c(S(=O)(=O)C(F)(F)F)c4)cc3)CC2)C1
5. COc1cnc2c(c1)C(=O)c1c-2n(CCCN2CCNCC2)c(=O)c2cc(F)ccc12

OUT:
1.94
1.50
0.61
0.70
0.13

Here are 3 molecules. What values of log10 of TGI were reported for them?
1. O=[N+]([O-])C1=Cc2c(O)ccc(O)c2C2c3ccccc3NC12 (stereo not given)
2. COC1=C(OC)C(=O)c2cc(C)c(=O)c(C)cc2C1=O
3. CCCCCCCCCCCCNC(=O)N[C@H](C(=O)N[C@H]1/C=C/OCCNC(=O)/C=C/[C@H](C(C)C)NC1=O)C(C)C

OUT:
[0.74, 1.51, 0.72]

###

Tested on: A549 NSCLC
Test: NCI tumour cell line growth inhibition, 48 h
Metric: GI50

Past entries and their recorded results:
molecule=CC1(C)CCC(c2ccc(Cl)cc2)=C(CN2CCN(c3ccc(C(=O)NS(=O)(=O)c4ccc(N[C@H](CCN5CCOCC5)CSc5ccccc5)c(S(=O)(=O)C(F)(F)F)c4)cc3)CC2)C1 target_under_test="A549 NSCLC" value_reported="1730 nM"
molecule=NC1=Nc2cc(OCCCCN3Cc4ccccc4C3)c(OCC3CC3)cc2C12CCCC2 target_under_test="A549 NSCLC" value_reported="1990 nM"
molecule="OC1(c2ccccc2)c2ccccc2N(c2ccccc2)c2ccc(Cl)cc21 (centres undefined)" target_under_test="A549 NSCLC" value_reported="332 nM"

Attention now turns to another entry.
IN: State its GI50: C=C(C)[C@@H]1CC[C@]2(C(=O)OC)CC[C@]3(C)[C@H](CC[C@@H]4[C@@]5(C)CC/C(=N\OCCC(=NCCC#N)NOCCC#N)C(C)(C)[C@@H]5CC[C@]43C)[C@@H]12
OUT: 5270 nM

###

Test system: NCI-H23 lung
Experiment: NCI tumour cell line growth inhibition, 48 h
Metric: TGI (µM)
Numbers only, in µM.

compound="CCN(CC)CCCC(C)Nc1ccnc2cc(OC)ccc12 (configuration not stated)" value_reported=96.3
compound=CCCCCCCCCCCCCCCCCCCCCCC(=O)N[C@H]1CCc2cc(OC)c(OC)c(OC)c2-c2ccc(SC)c(=O)cc21 value_reported=62.2
compound="N/C(=N\\O)c1cn(C2OC(CO)C(O)C2O)c2ncnc(N)c12 (configuration not stated)" value_reported=5.18
compound=CN(C)CCCCN1c2ccccc2Sc2ccc(N=[N+]=[N-])cc21 value_reported=27.7
compound=COc1ccc2nc3cc(Cl)ccc3c(NCCCN(C)CCCNc3ccc4ncn5c6ccccc6c(=O)c3c45)c2c1 value_reported=6.13
compound=O=c1c2cc(F)ccc2sc2c(NCCCNCCO)nc3ccc(F)cc3c12 value_reported=3.28

Give TGI for each listed item.
1. c1ccc2sc(C3(N4CCCCCC4)CCCCC3)cc2c1
2. CC1(C)OC2OC(/C=C/[N+](=O)[O-])C3OC(C)(C)OC3C2O1 (configuration not stated)
3. CC(C)C1CC(CO)(CNc2nc(N)nc(Cl)c2C=O)C1 (configuration not stated)
4. O=C1C(=C2C(=O)c3ccccc3[N+]2=O)N([O-])c2ccccc21

OUT:
41.5
37.6
4.64
77.7
